The compounds below have reported IC50 for Peroxisome proliferator-activated receptor gamma (Homo sapiens, UniProt P37231).
Quantity measured: IC50 (nM)

Consider the worked cases shown below.
>>> print(df.to_string())
                                   compound  unit_descriptor  quantitative_readout
0  CCCc1c(OCCCOc2ccc3c(ccn3C(CC)C(=O)O)c2)ccc2c(C(F)(F)F)noc12 (stereo not given)               nM                  1710
1  CCCc1c(OCCC(C)CCOc2cccc3c2ccn3CC(=O)O)ccc2c(C(F)(F)F)noc12 (stereo not given)               nM                  1450
2  CCCc1c(OCCC(C)CCOc2ccc3c(ccn3CC(=O)O)c2)ccc2c(C(F)(F)F)noc12 (stereo not given)               nM                  1370

1. CCCc1c(OCCCOc2cccc3c2ccn3CC(=O)O)ccc2cc(-c3ccccc3)oc12
2. CCCc1c(OCCCOc2ccc3c(ccn3CCC(=O)O)c2)ccc2c(C(F)(F)F)noc12
// pick larger IC50 from pair: 1 vs 2 To answer, give the label that identifies your chosen option.
1
